Just for reference, patent US20210253725A1 is where these values come from.

Molecular target: T1, CD27 expressed on the cell surface of HT1080_CD27 cells (human, UniProt P26842 20-260)
T1 construct: whole, on cells; species not restated for the HT1080 transfectant
T1 sequence (looked up): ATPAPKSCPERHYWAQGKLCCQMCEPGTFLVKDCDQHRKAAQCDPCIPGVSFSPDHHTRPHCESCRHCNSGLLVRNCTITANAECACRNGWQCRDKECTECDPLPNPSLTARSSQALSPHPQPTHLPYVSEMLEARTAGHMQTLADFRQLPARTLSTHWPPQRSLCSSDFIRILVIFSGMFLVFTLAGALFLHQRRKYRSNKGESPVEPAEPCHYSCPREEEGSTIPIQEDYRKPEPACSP
Test: HT1080_CD27 cells, imaging; note: test concentration or dose not given here
Known Cellular binding assay [RFU] of a selection of binders

| binder | Cellular binding assay [RFU] (RFU) |
| --- | --- |
| P018.S.05.A.B06 (antibody, V domains shown, V regions on human Ig constant parts; also called AB27_84) VH: QSVEESGGRLVTPGTPLTLTCTVSGFSLNTYVMSWVRQAPGKGLEWIGYIDYGGAPYYASWAKGRFTISKTSTTVELKITSPTIEDTATYFCARGGYGGYVLVTVLWGPGTLVTVSS VL: DVVMTQTPASVSEPVGGTVTIKCQASQNIYSSLAWYQQKPGQPPKLLIYQASTLASEVPSRFKGSGSGTEFTLTINDLESADAATYYCQTYYGGSTYGNGFGGGTEVVVE | 309 |
| P018.S.09.A.A02 (antibody, V domains shown, V regions on human Ig constant parts; also called AB27_143) VH: QSVEESGGRLVTPGTPLTLTCTASGFSLSNFYMSWVRQAPGKGLEWIGIISTGGSAYYASWAKGRFTSSKTSTTVDLQITSPTTEDTATYFCARGSGTDGAWLYYGIDLWGPGTLVTVSS VL: DVVMTQTPASVEAAVGGTVTIKCQASENIGHALAWYQQKPGQPPKLLIYRTSTLASGVPSRFSGSGSGTQFSLTISDLDSADAATYFCQINYGGGSGGYFAFGGGTEVVVK | 155 |
